# Test system: 817829-284-R-J1-PDC complex spheroid viability
# assay_info: Anticancer human tumor 817829-284-R-J1-PDC patient-derived colon adenocarcinoma cell line growth inhibition [POLQ]
# recorded_conditions: curve of first compound; second compound 0.316 µM
experimental_endpoint: IC50 (µM)
Please give a number only; it is taken to be in µM.

As a guide, the following entries are already answered.
[
  {
    "compound": "CC(C)n1c(=O)n(C)c2cnc3cc(F)c(-c4ccc(OCCCN5CCCCC5)nc4)cc3c21 + Nc1ccc(C#CCN(C(=O)Cc2ncc(C(F)(F)F)cc2C(F)(F)F)c2ccc(F)cc2)nn1",
    "value_unit": "µM",
    "IC50": 8.1
  },
  {
    "compound": "CNCc1ccc(-c2[nH]c3cc(F)cc4c3c2CCNC4=O)cc1 + Cc1cccc(N(C)C(=O)C2C(O)CCN2c2nc(C)cc(C(F)(F)F)c2C#N)c1",
    "value_unit": "µM",
    "IC50": 3.41
  },
  {
    "compound": "COc1cc(C2c3cc4c(cc3C(OC3OC5COC(C)OC5C(O)C3O)C3COC(=O)C23)OCO4)cc(OC)c1O (stereo unspecified) + Nc1ccc(C#CCN(C(=O)Cc2ncc(C(F)(F)F)cc2C(F)(F)F)c2ccc(F)cc2)nn1",
    "value_unit": "µM",
    "IC50": 0.0762
  }
]

Alright, here's another compound for you.
For O=C(Nc1ccc(O)c(NS(=O)(=O)c2ccc(F)cc2)c1)c1ccc(-c2ccccc2)cc1 + Nc1ccc(C#CCN(C(=O)Cc2ncc(C(F)(F)F)cc2C(F)(F)F)c2ccc(F)cc2)nn1 , what is its reported IC50? 6.8

====

# Test system: 817829-284-R-J1-PDC complex spheroid viability
# assay_info: Anticancer human tumor 817829-284-R-J1-PDC cell line growth inhibition [POLQ];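 note: spheroids exposed to compounds for 7 days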;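 for viability, T/C: 100% = DMSO vehicle-treated spheroids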
# recorded_conditions: second compound 0.316 µM; first compound 0.01 µM; stronger effect = lower value
experimental_endpoint: viability, T/C (%)
Please give a number only; it is taken to be in %.

As a guide, the following entries are already answered.
[
  {
    "molecule": "COc1cccc(OCCCN)c1-c1cc(Nc2cnc(C#N)cn2)n[nH]1 + Cc1cccc(N(C)C(=O)C2C(O)CCN2c2nc(C)cc(C(F)(F)F)c2C#N)c1",
    "viability, T/C / %": 16.4
  },
  {
    "molecule": "Cn1ncnc1[C@H]1c2n[nH]c(=O)c3cc(F)cc(c23)N[C@@H]1c1ccc(F)cc1 + Cc1cccc(N(C)C(=O)C2C(O)CCN2c2nc(C)cc(C(F)(F)F)c2C#N)c1",
    "viability, T/C / %": 57.6
  },
  {
    "molecule": "C=CCn1c(=O)c2cnc(Nc3ccc(N4CCN(C)CC4)cc3)nc2n1-c1cccc(C(C)(C)O)n1 + Cc1cccc(N(C)C(=O)C2C(O)CCN2c2nc(C)cc(C(F)(F)F)c2C#N)c1",
    "viability, T/C / %": 107
  }
]

For Cn1ncnc1[C@H]1c2n[nH]c(=O)c3cc(F)cc(c23)N[C@@H]1c1ccc(F)cc1 + COC1C(OC(N)=O)C(O)C(Oc2ccc3c(O)c(NC(=O)c4ccc(O)c(CC=C(C)C)c4)c(=O)oc3c2C)OC1(C)C , what is its reported viability, T/C? 65.3

For CC[C@@]1(O)C(=O)OCc2c1cc1n(c2=O)Cc2cc3c(CN(C)C)c(O)ccc3nc2-1 + Cc1cccc(N(C)C(=O)C2C(O)CCN2c2nc(C)cc(C(F)(F)F)c2C#N)c1 then? 54.1

For COc1cccc(OCCCN)c1-c1cc(Nc2cnc(C#N)cn2)n[nH]1 + Nc1ccc(C#CCN(C(=O)Cc2ncc(C(F)(F)F)cc2C(F)(F)F)c2ccc(F)cc2)nn1 then? 14.7

For CC[C@@]1(O)C(=O)OCc2c1cc1n(c2=O)Cc2cc3c(CN(C)C)c(O)ccc3nc2-1 + COC1C(OC(N)=O)C(O)C(Oc2ccc3c(O)c(NC(=O)c4ccc(O)c(CC=C(C)C)c4)c(=O)oc3c2C)OC1(C)C then? 40.8

For C=CCn1c(=O)c2cnc(Nc3ccc(N4CCN(C)CC4)cc3)nc2n1-c1cccc(C(C)(C)O)n1 + COC1C(OC(N)=O)C(O)C(Oc2ccc3c(O)c(NC(=O)c4ccc(O)c(CC=C(C)C)c4)c(=O)oc3c2C)OC1(C)C then? 96.8

For Cn1ncnc1[C@H]1c2n[nH]c(=O)c3cc(F)cc(c23)N[C@@H]1c1ccc(F)cc1 + Nc1ccc(C#CCN(C(=O)Cc2ncc(C(F)(F)F)cc2C(F)(F)F)c2ccc(F)cc2)nn1 then? 64.2

For CCc1c2c(nc3ccc(O)cc13)-c1cc3c(c(=O)n1C2)COC(=O)[C@]3(O)CC + Nc1ccc(C#CCN(C(=O)Cc2ncc(C(F)(F)F)cc2C(F)(F)F)c2ccc(F)cc2)nn1 then? 19.1

For C=CCn1c(=O)c2cnc(Nc3ccc(N4CCN(C)CC4)cc3)nc2n1-c1cccc(C(C)(C)O)n1 + Nc1ccc(C#CCN(C(=O)Cc2ncc(C(F)(F)F)cc2C(F)(F)F)c2ccc(F)cc2)nn1 then? 113

For CC[C@@]1(O)C(=O)OCc2c1cc1n(c2=O)Cc2cc3c(CN(C)C)c(O)ccc3nc2-1 + Nc1ccc(C#CCN(C(=O)Cc2ncc(C(F)(F)F)cc2C(F)(F)F)c2ccc(F)cc2)nn1 then? 54.4
